Reported pIC50 values follow for various compounds
target: USP30 (Homo sapiens (Human), UniProt Q70CQ3); assay: USP30 biochemical IC50 assay; settings: fluorescence polarisation, TAMRA labelled peptide linked to ubiquitin; 30 min pre-incubation, 2 hr read; read-out: IC50 range
Sequence (Q70CQ3 57-517): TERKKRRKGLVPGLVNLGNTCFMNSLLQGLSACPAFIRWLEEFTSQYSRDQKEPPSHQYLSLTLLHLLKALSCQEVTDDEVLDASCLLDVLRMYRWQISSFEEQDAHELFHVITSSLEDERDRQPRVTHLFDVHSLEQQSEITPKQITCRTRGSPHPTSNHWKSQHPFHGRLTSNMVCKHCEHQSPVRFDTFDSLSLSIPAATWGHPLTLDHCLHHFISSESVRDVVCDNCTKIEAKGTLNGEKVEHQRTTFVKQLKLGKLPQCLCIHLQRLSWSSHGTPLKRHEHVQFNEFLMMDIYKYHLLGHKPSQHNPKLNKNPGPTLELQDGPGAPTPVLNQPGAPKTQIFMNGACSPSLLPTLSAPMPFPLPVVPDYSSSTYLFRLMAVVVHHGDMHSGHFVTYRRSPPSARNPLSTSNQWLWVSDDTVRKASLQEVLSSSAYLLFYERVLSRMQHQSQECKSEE
pIC50: −log10 of the molar value.

In the examples that follow, each entry is paired with its recorded pIC50.
>>> assay_value("Cc1nc(-c2cccc(S(=O)(=O)N(C)CC3CCN(C#N)C3)c2)cs1 (stereo not shown)")
"6.00 to 7.00"
>>> assay_value("N#CN1CCC(CNC(=O)c2cncc(-c3ccc(F)cc3)c2)C1 (stereo not shown)")
"6.00 to 7.00"
>>> assay_value("CN(CC1CCN(C#N)C1)S(=O)(=O)c1ccc(Oc2ccc(C(F)(F)F)cn2)cc1 (stereo not shown)")
"6.00 to 7.00"
>>> assay_value("N#Cc1cccc(-c2nnc(C(=O)NC[C@@H]3CCN(C#N)C3)o2)c1")
"> 7.00"

Qu. Read off the recorded pIC50 for N#CN1CC[C@H](CNC(=O)c2cc(-c3ccccc3)ccn2)C1
Ans. 6.00 to 7.00

Qu. Read off the recorded pIC50 for N#CN1CC[C@H](CNC(=O)c2cc3ccccc3cn2)C1
Ans. 5.00 to 6.00

Qu. Read off the recorded pIC50 for Cc1nn(C)cc1-c1cccc(NCC2CCN(C#N)C2)c1 (stereo not shown)
Ans. 5.00 to 6.00

Qu. Read off the recorded pIC50 for N#CN1CCC(CNc2nc3ccc(-c4cn[nH]c4)cc3s2)C1 (stereo not shown)
Ans. 6.00 to 7.00

Qu. Read off the recorded pIC50 for N#CN1CCC(CNC(=O)c2cc(N3CCCC3)ccn2)C1 (stereo not shown)
Ans. 6.00 to 7.00

Qu. Read off the recorded pIC50 for N#Cc1ccc2cnc(NCC3CCN(C#N)C3)cc2c1 (stereo not shown)
Ans. 5.00 to 6.00

Qu. Read off the recorded pIC50 for N#CN1CCC(CNC(=O)Nc2ccc(C(F)(F)F)cc2)C1 (stereo not shown)
Ans. 6.00 to 7.00

Qu. Read off the recorded pIC50 for N#Cc1cccc(-c2nnc(C(=O)NC[C@H]3CCN(C#N)C3)o2)c1
Ans. > 7.00

Qu. Read off the recorded pIC50 for N#CN1CC[C@H](CNC(=O)c2cn3ccc(Cl)cc3n2)C1
Ans. 5.00 to 6.00

Qu. Read off the recorded pIC50 for N#CN1CC[C@H](CNC(=O)c2cn3cc(Cl)ccc3n2)C1
Ans. 5.00 to 6.00

###

Reported pIC50 values follow for various compounds
Biological target: USP30 (Homo sapiens (Human), UniProt Q70CQ3)
Assay: USP30 biochemical IC50 assay
Details: fluorescence polarisation, TAMRA labelled peptide linked to ubiquitin; 30 min pre-incubation, 2 hr read; read-out: IC50 range
Description: USP30 Biochemical IC50 Assay Dilution plates were prepared at 21 times the final concentration (2100 μM for a final concentration of 100 μM) in 50% DMSO in a 96-well polypropylene V-bottom plate (Greiner #651201). […] Reactions were initiated by the addition of 50 nM of TAMRA labelled peptide linked to ubiquitin via an iso-peptide bond as fluorescence polarisation substrate. Reactions were read immediately after addition of substrate and following a 2 hr incubation at room temperature. […]
pIC50: −log10 of the molar value.

Qu. Read off the recorded pIC50 for N#CN1CC[C@H](CNC(=O)c2cn3cc(-c4cn[nH]c4)ccc3n2)C1
Ans. 5.00 to 6.00

Qu. Read off the recorded pIC50 for Cc1nn(C)cc1-c1ccc(NCC2CCN(C#N)C2)cc1 (stereo not shown)
Ans. 5.00 to 6.00

Qu. Read off the recorded pIC50 for N#CN1CC[C@@H](CNC(=O)c2ccc3c(c2)NC(=O)CO3)C1
Ans. 5.00 to 6.00

Qu. Read off the recorded pIC50 for N#CN1C[C@H]2CN(c3ncc(-c4ccccc4)s3)C(=O)[C@H]2C1
Ans. 5.00 to 6.00

Qu. Read off the recorded pIC50 for N#CN1CC[C@@H](CNc2ncc(-c3ccccc3)s2)C1
Ans. 6.00 to 7.00

Qu. Read off the recorded pIC50 for Cc1oncc1-c1ccc2nc(NC(C)C3CCN(C#N)C3)sc2c1 (stereo not shown)
Ans. 6.00 to 7.00

Qu. Read off the recorded pIC50 for N#CN1CCC(CNC(=O)Nc2cccc(Cc3ccccc3)c2)C1 (stereo not shown)
Ans. 6.00 to 7.00

Qu. Read off the recorded pIC50 for N#CN1CC[C@H](CNC(=O)c2ccc(-c3ccccc3)cn2)C1
Ans. 6.00 to 7.00

Qu. Read off the recorded pIC50 for CC(Nc1cc2ccccc2cn1)C1CCN(C#N)C1 (stereo not shown)
Ans. 5.00 to 6.00

###

molecular target: USP30 (Homo sapiens (Human), UniProt Q70CQ3); test: USP30 biochemical IC50 assay; conditions: fluorescence polarisation, TAMRA labelled peptide linked to ubiquitin; 30 min pre-incubation, 2 hr read; read-out: IC50 range
pIC50: −log10 of the molar value.
Reported pIC50 values follow for various molecules

>>> assay_value("Cc1nn(C)cc1-c1ccc(NCC2CCN(C#N)C2)c(F)c1 (stereo not shown)")
"5.00 to 6.00"
>>> assay_value("CC(Nc1nc2ccc(C#N)cc2s1)C1CCN(C#N)C1 (stereo not shown)")
"5.00 to 6.00"
>>> assay_value("CC(Nc1nc2ccc(-c3cn[nH]c3)cc2s1)C1CCN(C#N)C1 (stereo not shown)")
"6.00 to 7.00"

Qu. Specify the recorded pIC50 for N#CN1CC[C@H](CNC(=O)c2cn(-c3ccccc3)cn2)C1 , system: USP30 (Homo sapiens (Human), UniProt Q70CQ3).
Ans. 5.00 to 6.00

###

biological target: USP30 (Homo sapiens (Human), UniProt Q70CQ3); assay: USP30 biochemical IC50 assay
pIC50: −log10 of the molar value.
Reported pIC50 values follow for various molecules

>>> assay_value("N#CN1CCC(CNC(=O)c2nn(Cc3ccccc3)c3ccccc23)C1 (centres unmarked)")
"5.00 to 6.00"

# input for lookup
Qu. Read off the recorded pIC50 for N#CN1CCC(CNC(=O)c2nn(Cc3ccc(Cl)cc3Cl)c3ccccc23)C1 (centres unmarked)
Ans. > 7.00

###

Reported IC50 values follow for various molecules
target: USP30 (Homo sapiens (Human), UniProt Q70CQ3); assay: USP30 biochemical IC50 assay; settings: fluorescence polarisation, TAMRA labelled peptide linked to ubiquitin; 30 min pre-incubation, 2 hr read; read-out: IC50 range

In the examples that follow, each entry is paired with its recorded IC50.
>>> assay_value("N#CC(Nc1nc2ccccc2s1)C1CCN(C#N)C1 (centres unmarked) [Example 52]")
"0.1 to 1 µM"
>>> assay_value("N#CN1CC[C@H](CNC(=O)c2cc(-c3cccc(Cl)c3)no2)C1 [Example 55]")
"< 0.1 µM"
>>> assay_value("CN(CC1CCN(C#N)C1)C(=O)Cc1ccc(-c2ccccc2)cc1 (centres unmarked) [Example 37]")
"0.1 to 1 µM"
>>> assay_value("Cn1cc(-c2ccc3nc(C(=O)NCC4CCN(C#N)C4)cn3c2)cn1 (centres unmarked) [Example 39]")
"1 to 10 µM"

# input for lookup
Qu. Read off the recorded IC50 for Cc1ccccc1-c1cc(C(=O)NCC2CCN(C#N)C2)[nH]n1 (centres unmarked) [Example 25]
Ans. 0.1 to 1 µM

###

target: USP30 (Homo sapiens (Human)); test: USP30 biochemical IC50 assay; conditions: fluorescence polarisation, TAMRA labelled peptide linked to ubiquitin; 30 min pre-incubation, 2 hr read; read-out: IC50 range
Reported IC50 values follow for various compounds

In the examples that follow, each entry is paired with its recorded IC50.
>>> assay_value("N#CN1CC[C@H](CNC(=O)c2cn3cc(-c4ccn[nH]4)ccc3n2)C1")
"1000 to 10000 nM"
>>> assay_value("N#CN1CCC(CNc2ccnc(N3Cc4ccccc4C3)c2)C1 (stereo not shown)")
"100 to 1000 nM"
>>> assay_value("Cc1cc(C(=O)NCC2CCN(C#N)C2)nn1Cc1ccccc1 (stereo not shown)")
"1000 to 10000 nM"
>>> assay_value("N#CN1CC[C@H](CNC(=O)c2cn3ccc(C4CC4)cc3n2)C1")
"100 to 1000 nM"
>>> assay_value("N#CN1CCC(CNc2cc(-c3ccccc3)ccn2)C1 (stereo not shown)")
"100 to 1000 nM"

Qu. Specify the recorded IC50 for N#CN1CC[C@H](CNC(=O)c2cc3ccccn3n2)C1 , system: USP30 (Homo sapiens (Human)).
Ans. 1000 to 10000 nM

Qu. Specify the recorded IC50 for N#CN1CCC(CNc2nccc(-c3ccccc3)n2)C1 (stereo not shown) , system: USP30 (Homo sapiens (Human)).
Ans. 1000 to 10000 nM

Qu. Specify the recorded IC50 for N#CN1CCC(CNc2ccc(-c3ccccc3)cn2)C1 (stereo not shown) , system: USP30 (Homo sapiens (Human)).
Ans. 1000 to 10000 nM

Qu. Specify the recorded IC50 for CC(Nc1cc2cc(C#N)ccc2cn1)C1CCN(C#N)C1 (stereo not shown) , system: USP30 (Homo sapiens (Human)).
Ans. 1000 to 10000 nM

Qu. Specify the recorded IC50 for CNC(=O)c1ccc2cnc(NCC3CCN(C#N)C3)cc2c1 (stereo not shown) , system: USP30 (Homo sapiens (Human)).
Ans. 1000 to 10000 nM

Qu. Specify the recorded IC50 for CN1C(=O)COc2ccc(C(=O)NCC3CCN(C#N)C3)cc21 (stereo not shown) , system: USP30 (Homo sapiens (Human)).
Ans. 100 to 1000 nM

Qu. Specify the recorded IC50 for Cc1ccc(F)c(NC(=O)NCC2CCN(C#N)C2)c1 (stereo not shown) , system: USP30 (Homo sapiens (Human)).
Ans. 100 to 1000 nM

Qu. Specify the recorded IC50 for N#CN1CCC(CNc2nc3ccc(F)cc3s2)C1 (stereo not shown) , system: USP30 (Homo sapiens (Human)).
Ans. 1000 to 10000 nM

Qu. Specify the recorded IC50 for COc1ccc(/C=C/C(=O)NCC2CCN(C#N)C2)c(F)c1 (stereo not shown) , system: USP30 (Homo sapiens (Human)).
Ans. 100 to 1000 nM

Qu. Specify the recorded IC50 for N#CN1CCC(CNc2ncccc2-c2ccccc2)C1 (stereo not shown) , system: USP30 (Homo sapiens (Human)).
Ans. 10000 to 100000 nM

Qu. Specify the recorded IC50 for N#Cc1cccc(-n2cnc(C(=O)NC[C@H]3CCN(C#N)C3)c2)c1 , system: USP30 (Homo sapiens (Human)).
Ans. < 100 nM

Qu. Specify the recorded IC50 for N#CN1CC[C@H](CNc2ncc(-c3ccccc3)s2)C1 , system: USP30 (Homo sapiens (Human)).
Ans. < 100 nM

Qu. Specify the recorded IC50 for N#CN1CC[C@H](CNC(=O)c2cn(CC3CC3)cn2)C1 , system: USP30 (Homo sapiens (Human)).
Ans. 1000 to 10000 nM

Qu. Specify the recorded IC50 for COc1ccccc1-n1cnc(C(=O)NC[C@H]2CCN(C#N)C2)c1 , system: USP30 (Homo sapiens (Human)).
Ans. 100 to 1000 nM

Qu. Specify the recorded IC50 for COc1cccc(-n2cnc(C(=O)NC[C@H]3CCN(C#N)C3)c2)c1 , system: USP30 (Homo sapiens (Human)).
Ans. 100 to 1000 nM
